Measured target: human mGluR4 (Homo sapiens (Human))
Method description: mGluR4 potentiation assay, CHO cells transfected with human mGluR4, Ca2+-sensitive dye, EC20 agonist
Format: cell-based
Measurement conditions: potentiation of mGluR4; main compound table; species not given
pEC50: −log10 of the molar value.
The label depends only on pEC50: Met if it is at least 6, Not met if it is smaller.

INSERT INTO results (compound, class) VALUES
  ('O=C(c1nsc2cc(Nc3n[nH]c4cccnc34)ccc12)N1CCSCC1', 'Met'),
  ('CCCc1nsc2cc(Nc3n[nH]c4cccnc34)ccc12', 'Met'),
  ('c1cnc2c(Nc3ccc4c(C5CC5)nsc4c3)n[nH]c2n1', 'Met'),
  ('c1cnc2c(Nc3cnc4c(CN5CCOCC5)nsc4c3)n[nH]c2c1', 'Met'),
  ('O=C(c1nsc2cc(Nc3n[nH]c4cccnc34)ccc12)N1CCC(F)(F)C1', 'Met'),
  ('CN(Cc1nsc2cc(Nc3n[nH]c4cccnc34)cnc12)C1CC(F)(F)C1', 'Met'),
  ('O=C(c1nsc2cc(Nc3n[nH]c4cccnc34)ccc12)N1CCN2CCCC2C1 (stereo not shown)', 'Not met'),
  ('c1cnc2c(Nc3ccc4c(-c5ccsc5)nsc4c3)n[nH]c2c1', 'Met'),
  ('O=C(c1nsc2cc(Nc3n[nH]c4cccnc34)ccc12)N1CCCC(F)(F)C1', 'Met'),
  ('c1ccc(-c2nsc3cc(Nc4n[nH]c5cccnc45)ccc23)cc1', 'Met'),
  ('c1cnc2[nH]nc(Nc3cnc4c(CN5CCCCC5)nsc4c3)c2c1', 'Not met'),
  ('CC(C)(C)Cc1nsc2cc(Nc3n[nH]c4cccnc34)ccc12', 'Met'),
  ('O=C(NC1CC(F)(F)C1)c1nsc2cc(Nc3n[nH]c4nccnc34)ccc12', 'Met'),
  ('O=C(C1CC1)N1CCC(c2nsc3cc(Nc4n[nH]c5cccnc45)ccc23)CC1', 'Met'),
  ('O=C(c1nsc2cc(Nc3n[nH]c4cccnc34)ccc12)N1CCCC1c1ccccn1 (stereo not shown)', 'Not met'),
  ('FC1CCN(Cc2nsc3cc(Nc4n[nH]c5cccnc45)cnc23)CC1', 'Met'),
  ('c1cnc2c(Nc3ccc4c(C5CC5)nsc4c3)n[nH]c2c1', 'Met');

* * *

Measured target: human mGluR4 (Homo sapiens (Human), UniProt Q14833)
Sequence (Q14833 33-912): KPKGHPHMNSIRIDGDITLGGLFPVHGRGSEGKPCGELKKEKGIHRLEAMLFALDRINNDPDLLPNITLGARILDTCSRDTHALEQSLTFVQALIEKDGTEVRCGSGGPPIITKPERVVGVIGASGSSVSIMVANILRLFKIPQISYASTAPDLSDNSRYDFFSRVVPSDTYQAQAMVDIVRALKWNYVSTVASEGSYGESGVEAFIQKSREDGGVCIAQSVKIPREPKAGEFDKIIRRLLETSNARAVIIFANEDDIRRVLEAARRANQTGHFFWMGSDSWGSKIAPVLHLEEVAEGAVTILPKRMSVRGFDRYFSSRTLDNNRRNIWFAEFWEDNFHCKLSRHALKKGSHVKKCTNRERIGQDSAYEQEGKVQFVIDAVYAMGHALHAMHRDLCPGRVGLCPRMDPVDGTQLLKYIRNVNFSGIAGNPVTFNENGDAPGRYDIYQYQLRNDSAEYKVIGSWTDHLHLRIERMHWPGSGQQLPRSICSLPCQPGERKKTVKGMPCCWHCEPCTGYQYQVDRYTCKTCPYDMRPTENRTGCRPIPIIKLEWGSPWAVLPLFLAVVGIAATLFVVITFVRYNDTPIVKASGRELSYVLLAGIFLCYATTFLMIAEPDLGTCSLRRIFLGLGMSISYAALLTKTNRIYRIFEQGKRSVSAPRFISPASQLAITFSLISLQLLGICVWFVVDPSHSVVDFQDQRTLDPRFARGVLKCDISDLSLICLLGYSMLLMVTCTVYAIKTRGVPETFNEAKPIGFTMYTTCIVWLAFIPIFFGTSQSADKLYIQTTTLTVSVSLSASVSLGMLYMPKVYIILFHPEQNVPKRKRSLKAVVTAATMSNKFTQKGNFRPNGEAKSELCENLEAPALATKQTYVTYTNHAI
Method description: mGluR4 potentiation assay, CHO cells transfected with human mGluR4, Ca2+-sensitive dye, EC20 agonist
Assay type: cell-based
Measurement conditions: potentiation of mGluR4; summary list repeated at the end of the table; species not stated
Recorded EC50 by entry
Measurement kind: EC50

INSERT INTO results (smiles_input, endpoint_value) VALUES
  ('O=C(c1nsc2cc(Nc3n[nH]c4cccnc34)ccc12)N1CCC(C(F)(F)F)CC1', '0.05 µM'),
  ('CC(=O)N1CCC(c2nsc3cc(Nc4n[nH]c5nccnc45)ccc23)CC1', '0.154 µM'),
  ('CC1CCN(C(=O)c2nsc3cc(Nc4n[nH]c5cccnc45)ccc23)CC1', '0.408 µM'),
  ('CCc1nsc2cc(Nc3n[nH]c4ncccc34)cnc12', '0.1 µM'),
  ('c1cnc2c(Nc3ccc4c(-c5ccsc5)nsc4c3)n[nH]c2c1', '0.216 µM');
